- System: corn
- EXPERIMENT_NOTES: Phytotoxicity test for upland field crops (foliar treatment test)
- Type: in vivo
- Set-up: key: 0 (no harm); 9 (complete withered)
- ASSAY_CONTEXT: 50 g ai/ha, Corn (7 days after treatment)
RECORDED_ENDPOINT: Foliar treatment phytotoxicity, Corn
Give bare numbers.

// worked examples, Foliar treatment phytotoxicity, Corn included
| COMPOUND_SMILES | Foliar treatment phytotoxicity, Corn |
| --- | --- |
| Cn1nnc(CSCc2nc(C(F)F)ccc2C(=O)Nc2nnnn2C)n1 | 0 |
| C=CCn1nnnc1NC(=O)c1ccc(C(F)(F)F)nc1COCc1nnn(CC)n1 | 0 |
| Cc1nc(COCc2nc(C(F)(F)F)ccc2C(=S)Nc2nnnn2C)nn1C | 1 |
| CCCn1nnnc1NC(=O)c1ccc(C(F)(F)F)nc1COCc1ncn(C)n1 | 1 |
| COCn1nnc(COCc2nc(C(F)(F)F)ccc2C(=O)Nc2nnnn2C)n1 | 2 |
| CN(Cc1nnn(C)n1)c1nc(C(F)(F)F)ccc1C(=O)Nc1nnnn1C | 0 |

# returns recorded Foliar treatment phytotoxicity, Corn (system: corn) for Cn1nnnc1NC(=O)c1ccc(C(F)(F)F)nc1COCc1nc(C(F)F)n(C)n1
3

----------
- Test system: rice
- EXPERIMENT_NOTES: Phytotoxicity test for upland field crops (foliar treatment test)
- Assay type: in vivo
- ASSAY_CONTEXT: 50 g ai/ha, Rice (14 days after treatment)
Lab note: anything with Foliar treatment phytotoxicity, Rice at or over 6 counts as Fulfilled; the rest go in Not fulfilled.

Study these solved cases before continuing.
| COMPOUND_SMILES | ASSIGNED_CATEGORY |
| --- | --- |
| Cn1nnnc1COc1nc(C(F)(F)F)ccc1C(=O)Nc1nnnn1C | Fulfilled |
| CON(Cc1nnn(C)n1)c1nc(C(F)(F)F)ccc1C(=O)Nc1nnnn1C | Not fulfilled |
| Cn1ncnc1COc1nc(C(F)(F)F)ccc1C(=O)Nc1nnnn1C | Fulfilled |

State whether the measured Foliar treatment phytotoxicity, Rice reaches 6, counting equality as reaching it, for Cn1nnc(COCc2nc(C(F)(F)F)ccc2C(=O)N(C(=O)c2ccccc2)c2nnnn2C)n1
Not fulfilled

Check the entry Cn1nnc(COCc2nc(C(F)F)ccc2C(=O)Nc2nnnn2C)n1 : does Foliar treatment phytotoxicity, Rice equal or exceed 6?
Fulfilled

----------
Give Soil treatment herbicidal activity, Crabgrass for every item shown.
- Tested on: crabgrass
- EXPERIMENT_NOTES: Herbicidal activity test against upland field weeds (soil treatment test)
- Format: in vivo
- Parameters: key: 0 (no control); 100 (complete control)
- ASSAY_CONTEXT: 50 g ai/ha, scale 0 (no control) to 100 (complete control)
One number for each entry.

I have 4 compounds here; please give me Soil treatment herbicidal activity, Crabgrass for each one.
1. CCOC(=O)OC(C)n1nnn(C)c1=NC(=O)c1ccc(C(F)(F)F)nc1CSCc1nnn(C)n1 (stereo not shown)
2. COC(=O)OC(C)N(C(=O)c1ccc(C(F)(F)F)nc1CSCc1nnn(C)n1)c1nnnn1C (stereo not shown)
3. Cn1nnc(CSCc2nc(C(F)(F)F)ccc2C(=O)Nc2nnnn2C)n1
4. CCOC(=O)OC(C)N(C(=O)c1ccc(C(F)(F)F)nc1COCc1nnn(C)n1)c1nnnn1C (stereo not shown)

100
98
100
100

----------
Assign Soil treatment phytotoxicity, Rice to each entry below.
- Tested on: rice
- EXPERIMENT_NOTES: Phytotoxicity test for field crops (soil treatment test)
- Type: in vivo
- ASSAY_CONTEXT: 100 g ai/ha; Rice (10 days after treatment)
Answers are plain numbers.

See these solved cases before continuing.
| COMPOUND_SMILES | TARGET_ENTITY | Soil treatment phytotoxicity, Rice |
| --- | --- | --- |
| Cn1nc(COCc2nc(C(F)(F)F)ccc2C(=O)Nc2nnnn2C)nc1Br | rice | 4 |
| CON(Cc1nnn(C)n1)c1nc(C(F)(F)F)ccc1C(=O)Nc1nnnn1C | rice | 6 |

Continue with the molecule presented below.
Sample Cn1ncnc1COCc1nc(C(F)(F)F)ccc1C(=O)Nc1nnnn1C — what was its Soil treatment phytotoxicity, Rice?
5

----------
Can you tell me Soil treatment phytotoxicity, Soybean for the items I'm about to list?
- Test system: soybean
- EXPERIMENT_NOTES: Phytotoxicity test for field crops (soil treatment test)
- Assay type: in vivo
- Parameters: key: 0 (no harm); 9 (complete withered)
- ASSAY_CONTEXT: 100 g ai/ha; Soybean (10 days after treatment)

Consider the worked cases shown below.
| COMPOUND_SMILES | TARGET_ENTITY | Soil treatment phytotoxicity, Soybean |
| --- | --- | --- |
| Cn1nc(COCc2nc(C(F)(F)F)ccc2C(=O)Nc2nnnn2C)nc1C#N | soybean | 0 |
| Cn1nnnc1COc1nc(C(F)(F)F)ccc1C(=O)Nc1nnnn1C | soybean | 3 |
| Cn1nc(COCc2nc(C(F)(F)F)ccc2C(=O)Nc2nnnn2C)nc1Cl | soybean | 2 |

Switching to the query record.
Item under review: Cn1nnc(COCc2nc(C(F)(F)F)ccc2C(=S)Nc2nnnn2C)n1 . Reported Soil treatment phytotoxicity, Soybean?
0

----------
- Tested on: rice
- EXPERIMENT_NOTES: Phytotoxicity test for upland field crops (foliar treatment test)
- Assay type: in vivo
- Set-up: key: 0 (no harm); 9 (complete withered)
- ASSAY_CONTEXT: 100 g ai/ha, Rice (14 days after treatment)
Sorting guide: entries reporting Foliar treatment phytotoxicity, Rice beneath 5 go in the y pile, the rest go in the n pile.

Examples with answers:
| MOLECULE | TARGET_ENTITY | ASSIGNED_CATEGORY |
| --- | --- | --- |
| Cn1nnnc1COc1nc(C(F)(F)F)ccc1C(=O)Nc1nnnn1C | rice | n |
| Cn1nnnc1NC(=O)c1ccc(C(F)(F)F)nc1OCc1nnnn1C(F)F | rice | n |
| CON(Cc1nnn(C)n1)Cc1nc(C(F)(F)F)ccc1C(=O)Nc1nnnn1C | rice | n |
| Cn1nnc(CSCc2nc(C(F)(F)F)ccc2C(=O)Nc2nnnn2C)n1 | rice | y |
| Cn1nc(COCc2nc(C(F)(F)F)ccc2C(=O)Nc2nnnn2C)nc1Cl | rice | n |

Proceed to the following item.
Hi there! Is Foliar treatment phytotoxicity, Rice for CCOC(=O)OC(C)N(C(=O)c1ccc(C(F)(F)F)nc1COCc1nnn(C)n1)c1nnnn1C (centres unmarked) below 5, do you know?
y

----------
- Test system: corn
- EXPERIMENT_NOTES: Phytotoxicity test for upland field crops (foliar treatment test)
- Format: in vivo
- ASSAY_CONTEXT: 100 g ai/ha, Corn (7 days after treatment)
RECORDED_ENDPOINT: Foliar treatment phytotoxicity, Corn
Give bare numbers.

// known answers, use as guide
| COMPOUND_SMILES | Foliar treatment phytotoxicity, Corn |
| --- | --- |
| Cn1nnnc1NC(=O)c1ccc(C(F)(F)F)nc1COCc1nc(C(F)F)n(C)n1 | 4 |
| Cn1nnc(CSCc2nc(C(F)F)ccc2C(=O)Nc2nnnn2C)n1 | 0 |
| C=CCn1nnnc1NC(=O)c1ccc(C(F)(F)F)nc1COCc1nc(C(F)(F)F)n(C)n1 | 0 |

Here is the next item to consider.
I'm curious: which Foliar treatment phytotoxicity, Corn was measured for Cn1nnc(COCc2nc(C(F)(F)F)ccc2C(=S)Nc2nnnn2C)n1 tested on corn?
6

----------
- System: soybean
- EXPERIMENT_NOTES: Phytotoxicity test for field crops (soil treatment test)
- Type: in vivo
- ASSAY_CONTEXT: 50 g ai/ha; Soybean (10 days after treatment)
I'd be grateful if you could share measured Soil treatment phytotoxicity, Soybean for these entries.

Consider the following items and state reported Soil treatment phytotoxicity, Soybean for each.
1. Cn1cnc(COCc2nc(C(F)F)ccc2C(=O)Nc2nnnn2C)n1 [Compound No. 2-85]
2. Cn1ncnc1COCc1nc(C(F)(F)F)ccc1C(=O)Nc1nnnn1C [Compound No. 1-102]
3. Cn1nnnc1NC(=O)c1ccc(C(F)(F)F)nc1Sc1nnnn1C [Compound No. 1-40]
4. Cn1nc(COCc2nc(C(F)(F)F)ccc2C(=O)Nc2nnnn2C)nc1Br [Compound No. 2-136]
5. Cn1nnc(COCc2nc(C(F)(F)F)ccc2C(=O)N(c2nnnn2C)S(C)(=O)=O)n1 [Compound No. 2-69]
6. Cn1nnnc1COCc1nc(C(F)(F)F)ccc1C(=O)Nc1nnnn1C [Compound No. 1-61]
7. Cn1nnc(COCc2nc(C(F)(F)F)ccc2C(=S)Nc2nnnn2C)n1 [Compound No. 2-106]

[2, 0, 0, 0, 0, 0, 0]

----------
- System: rice
- EXPERIMENT_NOTES: Phytotoxicity test for upland field crops (foliar treatment test)
- Type: in vivo
- Design: key: 0 (no harm); 9 (complete withered)
- ASSAY_CONTEXT: 50 g ai/ha, Rice (7 days after treatment)
RECORDED_ENDPOINT: Foliar treatment phytotoxicity, Rice
Numbers only.

Solved entries:
| MOLECULE | TARGET_ENTITY | RECORDED_ENDPOINT | OBSERVED |
| --- | --- | --- | --- |
| CCOC(=O)OC(C)N(C(=O)c1ccc(C(F)(F)F)nc1COCc1nnn(C)n1)c1nnnn1C (centres unmarked) [Compound No. 4-8] | rice | Foliar treatment phytotoxicity, Rice | 0 |
| COC(=O)OC(C)N(C(=O)c1ccc(C(F)(F)F)nc1COCc1ncn(C)n1)c1nnnn1C (centres unmarked) [Compound No. 4-1] | rice | Foliar treatment phytotoxicity, Rice | 2 |
| Cn1nnnc1CSc1nc(C(F)(F)F)ccc1C(=S)Nc1nnnn1C [1-44] | rice | Foliar treatment phytotoxicity, Rice | 6 |
| Cn1nnnc1COCc1nc(C(F)(F)F)ccc1C(=O)Nc1nnnn1C [Compound No. 1-61] | rice | Foliar treatment phytotoxicity, Rice | 4 |
| Cn1ncnc1COCc1nc(C(F)(F)F)ccc1C(=O)Nc1nnnn1C [Compound No. 1-102] | rice | Foliar treatment phytotoxicity, Rice | 6 |

Please go through the list and note Foliar treatment phytotoxicity, Rice for each molecule.
1. Cn1nnc(CSCc2nc(C(F)(F)F)ccc2C(=O)Nc2nnnn2C)n1 [Compound No. 2-102]
2. Cn1nnc(COCc2nc(C(F)(F)F)ccc2C(=O)N(c2nnnn2C)S(C)(=O)=O)n1 [Compound No. 2-69]
3. Cn1nnnc1NC(=O)c1ccc(C(F)(F)F)nc1OCc1nnnn1C(F)F [Compound No. 1-26]

1. 3
2. 6
3. 3
